Reported normalized growth values are given for each entry in this list.
- TEST NAME: chemical genetic growth profiling, strain panel (AID 1159580);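 note: tested at 20 µM; growth read once vehicle control cultures reached saturation at 30 °C; 1 = growth at the plate median or of vehicle wells; lower values mean less growth of the strain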
- SETTINGS: S. cerevisiae deletion strains, growth OD, locus YBR231C, strain swc5, stronger effect = lower value
Hit rate of the full screen: of about 5,500 compounds, about 2,000 (36%) were called active. Roughly 18% stayed inconclusive and do not appear here. The list shows a part of the results.
MEASURED QUANTITY: normalized growth

- COMPOUND: "COc1cc2c(cc1-c1coc3c4c(c(OC)cc3c1=O)OC(C)(C)C=C4)OCO2"
  MEASURED QUANTITY: "normalized growth"
  MEASURED VALUE: "1.04 (inactive)"
- COMPOUND: "CC1(C)C=Cc2c(cc3occ(-c4ccc5c(c4)OCO5)c(=O)c3c2O)O1"
  MEASURED QUANTITY: "normalized growth"
  MEASURED VALUE: "0.864 (active)"
- COMPOUND: "N#Cc1ccc2c(c1)N(CCCN1CCC(O)CC1)c1ccccc1S2"
  MEASURED QUANTITY: "normalized growth"
  MEASURED VALUE: "0.994 (inactive)"
- COMPOUND: "CC(=O)O[C@@H]1CC2C(C)(C)[C@H](O)C[C@H](O)[C@]2(C)C2CC[C@@]3(C)C(=CC(=O)O[C@H]3c3ccoc3)[C@@]21C (some centres not stated)"
  MEASURED QUANTITY: "normalized growth"
  MEASURED VALUE: "1 (inactive)"
- COMPOUND: "Cc1cc(C)nc(NS(=O)(=O)c2ccc(N)cc2)n1"
  MEASURED QUANTITY: "normalized growth"
  MEASURED VALUE: "0.998 (inactive)"
- COMPOUND: "C[N+]1(C)C2CC[C@H]1CC(OC(=O)C(O)c1ccccc1)C2 (some centres not stated)"
  MEASURED QUANTITY: "normalized growth"
  MEASURED VALUE: "1 (inactive)"
- COMPOUND: "O=c1n(CCCN2CCN(c3cccc(Cl)c3)CC2)nc2ccccn12"
  MEASURED QUANTITY: "normalized growth"
  MEASURED VALUE: "0.981 (inactive)"
- COMPOUND: "O=c1c(-c2ccc3c(c2)OCO3)coc2cc(O)ccc12"
  MEASURED QUANTITY: "normalized growth"
  MEASURED VALUE: "0.985 (inactive)"
- COMPOUND: "COP(=S)(OC)SCn1nnc2ccccc2c1=O"
  MEASURED QUANTITY: "normalized growth"
  MEASURED VALUE: "1 (inactive)"
- COMPOUND: "Cc1nccc2c1[nH]c1ccccc12"
  MEASURED QUANTITY: "normalized growth"
  MEASURED VALUE: "0.972 (inactive)"
- COMPOUND: "CN(C)c1nc(N(C)C)nc(N(C)C)n1"
  MEASURED QUANTITY: "normalized growth"
  MEASURED VALUE: "0.971 (inactive)"
- COMPOUND: "COc1c2c(cc3occ(-c4ccc5c(c4)OCO5)c(=O)c13)OC(C)(C)C=C2"
  MEASURED QUANTITY: "normalized growth"
  MEASURED VALUE: "0.989 (inactive)"
- COMPOUND: "CNC(=O)CSP(=S)(OC)OC"
  MEASURED QUANTITY: "normalized growth"
  MEASURED VALUE: "1.01 (inactive)"
- COMPOUND: "c1coc(CNc2ncnc3nc[nH]c23)c1"
  MEASURED QUANTITY: "normalized growth"
  MEASURED VALUE: "1 (inactive)"
- COMPOUND: "COc1ccc2c(=O)c(-c3cc4c(cc3OC)OCO4)coc2c1"
  MEASURED QUANTITY: "normalized growth"
  MEASURED VALUE: "1.01 (inactive)"
- COMPOUND: "CC(C)(O)CC[C@@H](O)[C@](C)(O)C1CC[C@@]2(O)C3=CC(=O)C4C[C@@H](O)[C@@H](O)C[C@]4(C)C3CC[C@]12C (some centres not stated)"
  MEASURED QUANTITY: "normalized growth"
  MEASURED VALUE: "0.993 (inactive)"
- COMPOUND: "OCCN1CCN(CCCN2c3ccccc3Sc3ccc(Cl)cc32)CC1"
  MEASURED QUANTITY: "normalized growth"
  MEASURED VALUE: "1 (inactive)"

----------
- TEST NAME: chemical genetic growth profiling, strain panel (AID 1159580);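 note: tested at 20 µM; growth read once vehicle control cultures reached saturation at 30 °C; 1 = growth at the plate median or of vehicle wells; lower values mean less growth of the strain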
- SETTINGS: S. cerevisiae deletion strains, growth OD, locus YER002W, strain NOP16, stronger effect = lower value
The whole screen tested about 5,500 compounds, of which about 2,000 (36%) were called active. Not shown: some 18% with an inconclusive outcome. The list shows a part of the results.
Reported normalized growth values are given for each entry in this list.

- RECORD SMILES: "COc1ccc2[nH]cc(CCNC(C)=O)c2c1"
  normalized growth: 0.999
- RECORD SMILES: "CCCCC/C=C\\C/C=C\\C/C=C\\C/C=C\\CCCC(=O)NCC(=O)O"
  normalized growth: 1.02
- RECORD SMILES: "OCCN1CCN(CCCN2c3ccccc3Sc3ccc(Cl)cc32)CC1"
  normalized growth: 1.04
- RECORD SMILES: "CCCCCCC/C=C\\CCCCCCCCC(=O)O"
  normalized growth: 1.03
- RECORD SMILES: "O=c1n(CCCN2CCN(c3cccc(Cl)c3)CC2)nc2ccccn12"
  normalized growth: 1
- RECORD SMILES: "O=c1oc(Cl)c(Cl)c2ccccc12"
  normalized growth: 1.02

----------
Reported normalized growth values are given for each entry in this list.
- TEST NAME: chemical genetic growth profiling, strain panel (AID 1159580);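 note: tested at 20 µM; growth read once vehicle control cultures reached saturation at 30 °C; 1 = growth at the plate median or of vehicle wells; lower values mean less growth of the strain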
- SETTINGS: S. cerevisiae deletion strains, growth OD, locus YEL061C, strain CIN8, stronger effect = lower value
The whole screen tested about 5,500 compounds, of which about 2,000 (36%) were called active. Inconclusive results (about 18%) are left out. This is one part of the list.

- MOLECULE: "CCCc1ccc(OC)cc1NC(C)=O"
  normalized growth: 0.996
- MOLECULE: "CC1=C(C(=O)O)N2C(=O)[C@@H](NC(=O)[C@H](N)C3=CCC=CC3)C2SC1 (stereo partly specified)"
  normalized growth: 0.995
- MOLECULE: "COc1ccc2[nH]cc(CCNC(C)=O)c2c1"
  normalized growth: 1
- MOLECULE: "CCOc1ccc(Cc2nccc3cc(OCC)c(OCC)cc23)cc1OCC"
  normalized growth: 0.986
- MOLECULE: "COc1ccc(Cc2nccc3cc(OC)c(OC)cc23)cc1OC"
  normalized growth: 1.01
- MOLECULE: "CCOC(=O)c1csc(N/N=C2/CCCc3ccccc32)n1"
  normalized growth: 0.821

----------
- TEST NAME: chemical genetic growth profiling, strain panel (AID 1159580);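 note: tested at 20 µM; growth read once vehicle control cultures reached saturation at 30 °C; 1 = growth at the plate median or of vehicle wells; lower values mean less growth of the strain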
- SETTINGS: S. cerevisiae deletion strains, growth OD, locus YOR316C, strain cot1, stronger effect = lower value
Screen size: about 5,500 compounds; about 2,000 (36%) were called active. Inconclusive results (about 18%) are left out. The list shows a part of the results.
Reported normalized growth values are given for each entry in this list.

- MOLECULE: "CC(=O)OC1CCC2C3CCc4cc(O)ccc4C3CCC12C (stereo not given)"
  normalized growth: "1.02 (inactive)"
- MOLECULE: "CCCCC(=O)O[C@H]1CCC2C3CCc4cc(O)ccc4C3CC[C@@]21C (stereo not given in full)"
  normalized growth: "0.994 (inactive)"
- MOLECULE: "CC(=O)Oc1ccc2c(c1)CCC1C2CC[C@@]2(C)C1CC[C@@H]2OC(C)=O (stereo not given in full)"
  normalized growth: "0.965 (inactive)"
- MOLECULE: "COc1cc(OC)c2c(c1Cl)OC1(C2=O)C(O)=CC(=O)CC1C (stereo not given)"
  normalized growth: "0.992 (inactive)"
- MOLECULE: "CCC(=O)O[C@H]1CCC2C3CCc4cc(O)ccc4C3CC[C@@]21C (stereo not given in full)"
  normalized growth: "1.01 (inactive)"
- MOLECULE: "O=[N+]([O-])/N=C1/NCCN1Cc1ccc(Cl)cc1"
  normalized growth: "0.989 (inactive)"
- MOLECULE: "CCN(CC)CCNC(=O)COc1ccc(OC)cc1"
  normalized growth: "0.981 (inactive)"
- MOLECULE: "C[C@H]1C(=O)O[C@@H]2CCN3CC=C(COC(=O)[C@](C)(O)[C@]1(C)O)[C@H]23"
  normalized growth: "0.978 (inactive)"
- MOLECULE: "C[C@]12CCC3c4ccc(O)cc4CCC3C1CC[C@@H]2OC(=O)CCC1CCCC1 (stereo not given in full)"
  normalized growth: "0.989 (inactive)"
- MOLECULE: "C[C@]12C=CC(=O)C=C1CCC1C2C(=O)C[C@@]2(C)C1CC[C@]2(O)C(=O)CO (stereo not given in full)"
  normalized growth: "0.985 (inactive)"

The reported measurements were obtained from PubChem BioAssay AID1159580.
